molecular target: human PRMT6 (Homo sapiens)
Sequence (Q96LA8 with tags, fused parts or gaps): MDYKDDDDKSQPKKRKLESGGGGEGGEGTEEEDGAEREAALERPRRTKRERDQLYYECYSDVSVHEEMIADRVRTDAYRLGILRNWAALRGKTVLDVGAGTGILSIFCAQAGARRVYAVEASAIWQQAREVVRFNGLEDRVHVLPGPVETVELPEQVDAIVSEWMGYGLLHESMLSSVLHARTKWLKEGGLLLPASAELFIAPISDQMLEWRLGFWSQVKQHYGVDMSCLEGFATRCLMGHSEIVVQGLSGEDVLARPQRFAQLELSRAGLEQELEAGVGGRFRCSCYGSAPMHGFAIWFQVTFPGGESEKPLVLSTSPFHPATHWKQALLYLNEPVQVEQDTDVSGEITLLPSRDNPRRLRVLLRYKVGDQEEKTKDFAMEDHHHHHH
Measured IC50, listed per entry.
ASSAY_METRIC: IC50

INSERT INTO assay_data (molecule, obs_value) VALUES
  ('CC(C)c1n[nH]cc1CN(C)CCN', '101 to 1000 nM'),
  ('CNCCN(C)Cc1c[nH]nc1C1CCN(C(=O)Cc2ccccc2)CC1', '< 100 nM'),
  ('CN(CCN)Cc1c[nH]nc1/C=C/c1ccc(F)cc1F', '< 100 nM'),
  ('COc1cccc(/C=C/c2n[nH]cc2CN(C)CCN)c1', '< 100 nM'),
  ('CNCCN(C)Cc1c[nH]nc1C1CCN(C(=O)C(C)C)CC1', '< 100 nM'),
  ('CNCCN(C)Cc1c[nH]nc1C1CCNCC1', '< 100 nM'),
  ('CNCCN(C)Cc1c[nH]nc1/C=C/c1ccc(-c2ccccc2)cc1', '< 100 nM'),
  ('CNCCN(C)Cc1c[nH]nc1C1CCN(CC(C)C)CC1', '< 100 nM'),
  ('CC1CCC(c2c[nH]nc2CN(C)CCN)CC1 (stereo not shown)', '< 100 nM'),
  ('Cc1ccc(/C=C/c2n[nH]cc2CN(C)CCN)cc1', '< 100 nM');

###

Measured IC50, listed per entry.
target: UniProt O60678
Sequence (O60678 with tags, fused parts or gaps): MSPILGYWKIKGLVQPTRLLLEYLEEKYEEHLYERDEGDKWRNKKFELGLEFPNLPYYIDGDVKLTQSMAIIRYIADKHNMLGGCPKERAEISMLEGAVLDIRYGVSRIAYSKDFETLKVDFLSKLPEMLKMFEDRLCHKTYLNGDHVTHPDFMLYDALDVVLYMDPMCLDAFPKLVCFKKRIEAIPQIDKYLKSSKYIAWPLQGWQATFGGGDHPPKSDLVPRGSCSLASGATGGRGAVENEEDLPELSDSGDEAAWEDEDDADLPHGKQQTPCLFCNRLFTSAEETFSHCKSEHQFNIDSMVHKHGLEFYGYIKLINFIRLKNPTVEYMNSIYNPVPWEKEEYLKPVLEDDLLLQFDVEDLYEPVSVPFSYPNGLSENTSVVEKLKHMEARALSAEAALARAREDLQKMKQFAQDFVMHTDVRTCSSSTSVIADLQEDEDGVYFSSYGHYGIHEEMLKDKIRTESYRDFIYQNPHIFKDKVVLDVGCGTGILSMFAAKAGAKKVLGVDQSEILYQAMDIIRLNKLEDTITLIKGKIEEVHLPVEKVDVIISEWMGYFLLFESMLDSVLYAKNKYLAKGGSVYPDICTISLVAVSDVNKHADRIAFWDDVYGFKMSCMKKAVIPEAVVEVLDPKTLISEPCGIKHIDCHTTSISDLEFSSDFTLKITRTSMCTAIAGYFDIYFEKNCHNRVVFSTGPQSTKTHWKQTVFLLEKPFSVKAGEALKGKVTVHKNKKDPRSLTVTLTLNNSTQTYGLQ
ASSAY_METRIC: IC50

INSERT INTO measurements (compound, system_tested, assay_metric, obs_value) VALUES
  ('CN(CCN)Cc1c[nH]nc1CCc1ccc(F)cc1 [Compound 23]', 'UniProt O60678', 'IC50', '3.01 to 10 µM'),
  ('COC/C=C/c1n[nH]cc1CN(C)CCN [Compound 19]', 'UniProt O60678', 'IC50', '3.01 to 10 µM'),
  ('CN(CCN)Cc1c[nH]nc1/C=C/c1cccc(C(F)(F)F)c1 [Compound 16]', 'UniProt O60678', 'IC50', '3.01 to 10 µM'),
  ('CN(CCN)Cc1c[nH]nc1C1CCCCC1 [Compound 22]', 'UniProt O60678', 'IC50', '3.01 to 10 µM'),
  ('Cc1ccc(/C=C/c2n[nH]cc2CN(C)CCN)cc1 [Compound 8]', 'UniProt O60678', 'IC50', '3.01 to 10 µM'),
  ('CNCCN(C)Cc1c[nH]nc1/C=C/c1ccc(OC)cc1 [Compound 7]', 'UniProt O60678', 'IC50', '3.01 to 10 µM'),
  ('CNCCN(C)Cc1c[nH]nc1/C=C/c1ccc(-c2ccccc2)cc1 [Compound 5]', 'UniProt O60678', 'IC50', '1.01 to 3 µM'),
  ('CNCCN(C)Cc1c[nH]nc1/C=C/c1ccc(C(F)(F)F)cc1 [Compound 6]', 'UniProt O60678', 'IC50', '3.01 to 10 µM'),
  ('CN(CCN)Cc1c[nH]nc1/C=C/c1cccc(F)c1 [Compound 20]', 'UniProt O60678', 'IC50', '1.01 to 3 µM'),
  ('CN(CCN)Cc1c[nH]nc1/C=C/c1ccc(C(F)(F)F)cc1 [Compound 18]', 'UniProt O60678', 'IC50', '1.01 to 3 µM'),
  ('CNCCN(C)Cc1c[nH]nc1C#Cc1ccccc1 [Compound 3]', 'UniProt O60678', 'IC50', '3.01 to 10 µM'),
  ('CN(CCN)Cc1c[nH]nc1/C=C/c1cc(C(F)(F)F)cc(C(F)(F)F)c1 [Compound 14]', 'UniProt O60678', 'IC50', '3.01 to 10 µM'),
  ('COc1cccc(/C=C/c2n[nH]cc2CN(C)CCN)c1 [Compound 17]', 'UniProt O60678', 'IC50', '1.01 to 3 µM'),
  ('CN(CCN)Cc1c[nH]nc1/C=C/c1cc(F)cc(F)c1 [Compound 15]', 'UniProt O60678', 'IC50', '1.01 to 3 µM'),
  ('CNCCN(C)Cc1c[nH]nc1C#Cc1cccc(OC)c1 [Compound 1]', 'UniProt O60678', 'IC50', '3.01 to 10 µM'),
  ('COc1cc(/C=C/c2n[nH]cc2CN(C)CCN)cc(OC)c1 [Compound 11]', 'UniProt O60678', 'IC50', '1.01 to 3 µM'),
  ('CN(CCN)Cc1c[nH]nc1/C=C/c1ccc(F)cc1F [Compound 13]', 'UniProt O60678', 'IC50', '3.01 to 10 µM'),
  ('CNCCN(C)Cc1c[nH]nc1C#Cc1ccc(C(C)(C)C)cc1 [Compound 2]', 'UniProt O60678', 'IC50', '1.01 to 3 µM');
